- measuredOn: T1, human LAG-3 (His tag) (human, UniProt P18627 23-450, limits assumed)
- T1 construct: also called LAG-3-His antigen; not shown: His tag
- T1 sequence (looked up): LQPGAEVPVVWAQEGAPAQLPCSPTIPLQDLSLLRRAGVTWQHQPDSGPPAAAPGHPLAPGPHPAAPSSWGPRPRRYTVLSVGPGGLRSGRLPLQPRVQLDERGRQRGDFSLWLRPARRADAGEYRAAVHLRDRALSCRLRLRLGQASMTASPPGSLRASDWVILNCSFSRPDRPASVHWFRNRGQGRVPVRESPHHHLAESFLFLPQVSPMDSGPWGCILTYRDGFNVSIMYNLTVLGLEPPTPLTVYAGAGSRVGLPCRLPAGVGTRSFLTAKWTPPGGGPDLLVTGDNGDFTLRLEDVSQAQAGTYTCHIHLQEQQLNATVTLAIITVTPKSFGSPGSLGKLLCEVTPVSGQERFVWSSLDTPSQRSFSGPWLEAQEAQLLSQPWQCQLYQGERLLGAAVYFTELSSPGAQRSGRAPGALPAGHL
- method: BLI (ForteBio Octet), LAG-3 His on Ni-NTA sensor
readout: koff (s⁻¹)
Give just the number in s⁻¹; leave the unit off.

Recorded koff, per entry:
[[record]]
binder = "murine monoclonal antibody #27 (antibody, IgG4, V domains shown, Purified from hybridoma supernatant; also called murine antibody #27; monoclonal antibody produced by hybridoma cell line #27 (CCTCC NO.C2017183)) VH: DVHLQESGPDLVKPSQSLSLTCTVTGYSITSFYSWHWIRQFPGNKLEWMGCIQYSGDTDSNPSLKSRISITRDTSENQLFLHLNSVTTEDTATYYCARSPYDSDPYYVMDYWGQGTSVTVSS VL: DIVMSQSPSSLAVSVGEKITMTCKSSQSLLYSGNQKNYLAWYQQKPGQSPTLLIYWASTRDSGVPDRLTGSGSGTDFTLTISSVKAEDLAVYYCQQYYAYPYTFGGGTKLETK"
readout = "koff"
unitname = "s⁻¹"
resultnumber = "3.86e-05"

[[record]]
binder = "humanized antibody AB12T4 (antibody, human IgG4 S228P, kappa, V domains shown, also called FITC-AB12T4) VH: DVQLQESGPGLVKPSQTLSLTCTVTGYSITSFYSWHWIRQFPGKGLEWMGCIQYSGDTDSNPSLKSRITITRDTSENQLFLKLSSVTAADTATYYCARSPYDSDPYYVMDYWGQGTLVTVSS VL: DIVMSQSPDSLAVSLGERITMTCKSSQSLLYSGNQKNYLAWYQQKPGQSPTLLIYWASTRDSGVPDRLTGSGSGTDFTLTISSVQAEDVAVYYCQQYYAYPYTFGQGTKLEIKR"
readout = "koff"
unitname = "s⁻¹"
resultnumber = "3.09e-05"

[[record]]
binder = "humanized antibody AB12T5 (antibody, human IgG4, kappa, V domains shown) VH: QVQLQESGPGLVKPSQTLSLTCTVSGYSITSFYSWHWIRQHPGKGLEWIGCIQYSGDTDSNPSLKSRVTISVDTSKNQFSLKLSSVTAADTAVYYCARSPYDSDPYYVMDYWGQGTSVTVSS VL: DIVMTQSPDSLAVSLGERATITCKSSQSLLYSGNQKNYLAWYQQKPGQPPKLLIYWASTRDSGVPDRFSGSGSGTDFTLTISSLQAEDVAVYYCQQYYAYPYTFGGGTKLEIKR"
readout = "koff"
unitname = "s⁻¹"
resultnumber = "2.28e-05"


Let us move to another entry and its koff.
Input: Entry human-mouse chimeric antibody AB12T2 (antibody, human IgG4 S228P, kappa, V domains shown) VH: DVHLQESGPDLVKPSQSLSLTCTVTGYSITSFYSWHWIRQFPGNKLEWMGCIQYSGDTDSNPSLKSRISITRDTSENQLFLHLNSVTTEDTATYYCARSPYDSDPYYVMDYWGQGTSVTVSS VL: DIVMSQSPSSLAVSVGEKITMTCKSSQSLLYSGNQKNYLAWYQQKPGQSPTLLIYWASTRDSGVPDRLTGSGSGTDFTLTISSVKAEDLAVYYCQQYYAYPYTFGGGTKLETKR needs its koff filled in; supply it.
Output: 4.97e-05

Every entry's value here was drawn from patent US20200347131A1.
